# System: HOP-62 NSCLC
# assay.remarks: NCI-60 one-dose screen, 48 h (100 = growth as untreated, 0 = no growth, -100 = all killed)
# recorded.conditions: 10 µM unless noted
Compounds without any hit were thinned out: in the full panel of roughly 83,000, 20% have a hit.

{"columns": ["molecule", "growth [%]"],
 "data": [
  ["CCOc1ccccc1C(=O)/C=C/c1cc2ccccc2[nH]c1=O", -33.5],
  ["COc1cc(NC(=O)c2cc(O)c(C/C=C(\\C)CCC=C(C)C)c(O)c2)cc2c1O[C@]1(C)CC[C@@H](O)C(C)(C)[C@H]1C2", 12.1],
  ["Cc1cnc(SCc2ccc(Cl)cc2)[nH]c1=S", 94.2],
  ["COc1ccc2c(c1)/C(=C1\\S/C(=N/c3nnc(C)s3)NC1=O)C(=O)N2Cc1ccc(Cl)cc1", 66.8],
  ["CCOC(=O)c1c(C(F)(F)F)n([O-])c2ccc(Cl)cc2[n+]1=O", -65.6],
  ["Cc1c(O)c(=O)ccn1-c1nc2ccccc2s1", 87.3],
  ["C=C1C(=O)O[C@H]2[C@H]1CCC(/C=N/c1ncc(Br)cc1N)=C\\CC[C@@]1(C)O[C@@H]21", 67.3],
  ["Cc1nc2sc(C(=O)Nc3cccc4ccccc34)c(N)c2cc1C(C)O (stereo not drawn)", 39.8],
  ["CCOC(=O)c1cnn(-c2nc(-c3ccc(F)cc3)c(C#N)c(N3CCOCC3)n2)c1N", 111],
  ["CC[C@]12C=CCN3CC[C@@]4(c5ccc(OC)cc5N(C)[C@H]4[C@@](O)(C(=O)OC)[C@@H]1OC(=O)CCC(=O)O[C@H]1CC[C@H]4[C@@H]5CC[C@H]6CC(=O)CC[C@]6(C)[C@H]5CC[C@]14C)[C@@H]32", 32.7],
  ["C=C1C(=O)O[C@H]2[C@H]1CC/C(COC(=O)CCCCCCC(=O)OC/C1=C/CC[C@@]3(C)O[C@H]3[C@H]3OC(=O)C(=C)[C@@H]3CC1)=C\\CC[C@@]1(C)O[C@@H]21", 83.6],
  ["O=C(NC[C@H](O)CN1CCc2ccccc2C1)c1cc(NC2COC2)ncn1", 92.8],
  ["O=C(Nc1ccc(N=Cc2ccccc2O)cc1)NC1C=c2ccccc2=CC1 (stereo not drawn)", 101],
  ["NC(N)=NC(N)=Nc1cc2ccccc2c2ccccc12", 38.3],
  ["CC(=O)Nc1c(C(=O)Nc2ccccc2)sc2nc3c(cc12)C(OC(C)=O)CCC3 (stereo not drawn)", 97.1],
  ["Cc1ccc(C(=O)/C(=C/c2ccc([N+](=O)[O-])cc2)S(=O)Cc2ccccc2)cc1 (stereo not drawn)", 47.9],
  ["N#Cc1ccc(N2Cc3cc(Cl)ccc3OC3=C2C(=O)N(Cc2ccc(F)cc2)C3=O)cc1", 52],
  ["CC(=O)c1cnc(-c2ccccc2)nc1CBr", 94.3]
]}
